Hello, the source for this data is patent US20210220408A1, in case you need it.

TARGET OF ASSAY: aryl hydrocarbon receptor (AHR) (Homo sapiens)
Sequence (P35869 11-848): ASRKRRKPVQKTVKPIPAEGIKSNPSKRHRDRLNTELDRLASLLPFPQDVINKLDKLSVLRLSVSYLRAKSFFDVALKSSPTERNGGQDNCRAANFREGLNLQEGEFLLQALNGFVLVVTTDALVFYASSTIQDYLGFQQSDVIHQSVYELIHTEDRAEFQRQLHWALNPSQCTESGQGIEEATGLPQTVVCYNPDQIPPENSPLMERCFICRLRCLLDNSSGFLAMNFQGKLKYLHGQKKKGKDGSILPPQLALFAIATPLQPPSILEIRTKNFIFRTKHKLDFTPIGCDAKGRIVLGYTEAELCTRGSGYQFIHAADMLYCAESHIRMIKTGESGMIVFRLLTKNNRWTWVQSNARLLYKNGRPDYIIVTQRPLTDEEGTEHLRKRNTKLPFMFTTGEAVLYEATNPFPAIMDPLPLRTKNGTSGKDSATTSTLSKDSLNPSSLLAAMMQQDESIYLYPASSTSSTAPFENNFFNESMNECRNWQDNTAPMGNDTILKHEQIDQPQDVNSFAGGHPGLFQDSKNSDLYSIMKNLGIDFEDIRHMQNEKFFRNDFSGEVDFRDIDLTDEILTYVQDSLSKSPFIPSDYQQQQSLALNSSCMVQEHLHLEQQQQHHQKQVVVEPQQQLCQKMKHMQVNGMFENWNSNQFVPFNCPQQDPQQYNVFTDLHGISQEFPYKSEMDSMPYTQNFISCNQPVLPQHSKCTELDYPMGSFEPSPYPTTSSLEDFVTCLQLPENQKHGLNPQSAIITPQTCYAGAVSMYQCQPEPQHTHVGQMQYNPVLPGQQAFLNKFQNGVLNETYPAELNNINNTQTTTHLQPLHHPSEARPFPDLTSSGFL
EXPERIMENTAL DETAILS: DRE-Luciferase reporter high-throughput screen (AHR antagonist, VAF347-activated)
pIC50: −log10 of the molar value.
Each entry below carries its reported pIC50.
PROPERTY MEASURED: pIC50

# COMPOUND, VALUE REPORTED
measured = [
    ("O=c1cc(CSc2nc3cc(Cl)ccc3o2)nc2sccn12 [112B]", "6.30 to 6.70"),
    ("Clc1ccc2nnn(OCc3coc(-c4cccs4)n3)c2c1 [132A]", "5.70 to 6.00"),
    ("Cc1ccc(C(=O)Nc2cc(C(C)(C)C)on2)cc1 [25A]", "< 5.70"),
    ("CC(C)NC(=O)c1nc(-c2cn(-c3ccccc3)cn2)n2ccccc12 [101A]", "5.70 to 6.00"),
    ("COc1ccc2[nH]c(C(=O)Nc3ccc(Br)c(C)n3)cc2c1 [25B]", "6.30 to 6.70"),
    ("FC(F)(F)c1cccc(Nc2nc3ccccc3[nH]2)c1 [114A]", "5.70 to 6.00"),
    ("COc1ccc(NC(=O)c2noc3c2CC(C)CC3)cc1 (stereo not drawn) [30B]", "5.70 to 6.00"),
    ("Cc1cccc(N2CC[C@H]3[C@H]2CCN3c2ncccn2)n1 [115B]", "6.00 to 6.30"),
    ("O=C(Nc1ccc(OC(F)F)c(Cl)c1)c1cccc(Cl)c1", "6.00 to 6.30"),
    ("Cc1c(COc2ccccc2C#N)cccc1[N+](=O)[O-] [88B]", "6.30 to 6.70"),
    ("CCn1c2ccccc2c2nnc(-n3nc(C)cc3C)nc21 [122B]", "5.70 to 6.00"),
    ("N#Cc1cccnc1Oc1ccc(NC(=O)c2ccc(F)cc2F)cc1", "5.70 to 6.00"),
    ("Cc1nn(-c2nc3ccccc3[nH]2)c2c1C(=O)CC(c1cccs1)C2 (stereo not drawn) [66B]", "5.70 to 6.00"),
    ("CCc1cc2c(=O)c(-c3nc(C)cs3)coc2c(CN2CCCC(c3cccnc3)C2)c1O (stereo not drawn) [197A]", "5.70 to 6.00"),
    ("C#CCOc1ccc(C(=O)Nc2cccc(OC)c2)cc1", "< 5.70"),
    ("CC(=O)c1c(C)nc2nc(SCc3cccc(Cl)c3)nn2c1C", "6.00 to 6.30"),
    ("Cc1cc(C)c2cc(C(=O)N(C)Cc3ccc(C)o3)[nH]c2c1 [62B]", "6.00 to 6.30"),
    ("Cc1cc(-c2ccccc2)nc2c1/C(=N\\O)CC(C)(C)C2 [104B]", "6.00 to 6.30"),
    ("COc1ccc(C(=O)Nc2ccc(C)c(F)c2)cc1", "5.70 to 6.00"),
    ("COC(=O)c1cc2c(ccn2-c2ccc(F)cc2)n1CCC#N [116B]", "5.70 to 6.00"),
    ("C/C(=N\\NC(=O)c1ccco1)c1ccc(Cl)c(Cl)c1 [43B]", "< 5.70"),
    ("CC(=O)Nc1cn(-c2ccccc2)nc1-c1ccc(Cl)s1 [55B]", "6.00 to 6.30"),
    ("O=C(CN1CCCCCC1)Nc1sc2c(c1C(=O)Nc1ccc(Br)cc1)CCC2 [42A]", "5.70 to 6.00"),
    ("CCC(=O)Nc1ccc(N2Cc3ccccc3C2=O)cc1", "6.00 to 6.30"),
    ("c1ccc(-c2nc(CSc3nncn3-c3ccccc3)co2)cc1 [133A]", "5.70 to 6.00"),
    ("Cn1nc(C(F)(F)F)c2cc(C(=O)Nc3ccc(F)cc3)sc21 [24B]", "6.00 to 6.30"),
    ("Cc1cc(Cl)ccc1OCc1cn2cccnc2n1 [120A]", "5.70 to 6.00"),
    ("Cc1nc2nc(SCCOc3ccc(C#N)cc3)nn2c(C)c1C [125A]", "5.70 to 6.00"),
    ("O=C(Cn1cnnn1)N(CCc1ccccc1)c1nc(-c2ccccc2)cs1 [41B]", "5.70 to 6.00"),
    ("O=C(Nc1ccc(N2CCC(C(F)(F)F)CC2)nc1)c1cccc(Cl)c1 [13A]", "< 5.70"),
    ("Cn1ccc(NC(=O)c2cc(-c3cccc(Cl)c3)[nH]n2)n1 [31A]", "< 5.70"),
    ("Cc1ccc(-n2nnc(-c3nc4ccccc4s3)c2N)cc1", "6.00 to 6.30"),
    ("O=[N+]([O-])c1cccc(-c2ccc(SCc3ccccc3F)nn2)c1 [48B]", "6.00 to 6.30"),
    ("COc1ccc(Nc2nc(-c3ccccn3)cs2)cc1", "6.00 to 6.30"),
    ("Clc1ccc(-c2nc3cc(Br)cnc3[nH]2)cc1 [72B]", "> 6.70"),
    ("C=C(Cc1nnc(C(C)C)s1)c1cn(CCOC)cc2c(=O)n(-c3ccccc3)nc1-2 [175A]", "< 5.70"),
    ("CNC(=O)c1ccsc1NC(=O)c1cccc(Oc2ccccc2)c1 [16B]", "5.70 to 6.00"),
    ("Clc1ccccc1CNc1ccc(-c2nc3ncccc3o2)cc1 [172A]", "5.70 to 6.00"),
    ("CN(C)C(=O)c1ccc(-c2cc(C(F)(F)F)nn2C)s1 [59B]", "6.00 to 6.30"),
    ("O=[N+]([O-])c1ccc(-n2cnc(-c3ccc(F)cc3)c2)nc1 [52B]", "6.30 to 6.70"),
    ("FCCCSc1nnc(-c2cc3cc4ccccc4nc3s2)o1", "6.00 to 6.30"),
    ("O=C(Nc1ccc(-c2nccs2)cc1)c1ccc(CN2C(=O)CNC2=O)cc1 [10A]", "5.70 to 6.00"),
]
